# Test Target: IRAK4 enzyme (Homo sapiens (Human))
# Method Summary: biochemical
# Assay type: biochemical
# Condition Summary: IRAK4 enzyme, TR-FRET (HTRF), 500 μM ATP
Listing of entries alongside the reported IC50.
Assay Metric: IC50 (nM)

INSERT INTO results (compound, test_target, bound_operator, reported) VALUES
  ('CC(=O)N1CC2(CC(Nc3cc(-c4ccc5cc(C#N)cnn45)ncc3C(=O)NC[C@@H](F)C(C)(C)O)C2)C1 [Example 447]', 'IRAK4 enzyme (Homo sapiens (Human))', '=', 5),
  ('CC(C)(O)[C@H](F)CNC(=O)c1cnc(-c2ccc3cc(C#N)cnn23)cc1Nc1ccc(-n2cccn2)nc1 [Example 770]', 'IRAK4 enzyme (Homo sapiens (Human))', '<', 1),
  ('N#Cc1cnn2c(-c3cc(NC45CCC(O)(CC4)CC5)c(C(=O)NCC(=O)N4CCCC4)cn3)ccc2c1 [Example 790]', 'IRAK4 enzyme (Homo sapiens (Human))', '<', 1),
  ('CNC(=O)c1cnc(-c2ccc3cc(C#N)cnn23)cc1NC12CCC(C(=O)NC)(CC1)CC2 [Example 485]', 'IRAK4 enzyme (Homo sapiens (Human))', '=', 1),
  ('CC(C)(O)[C@H](F)CNC(=O)c1cnc(-c2ccc3cc(C#N)cnn23)cc1Nc1ccc(-c2ccon2)nc1 [Example 775]', 'IRAK4 enzyme (Homo sapiens (Human))', '<', 1),
  ('CC(C)(O)[C@H](F)CNC(=O)c1cnc(-c2ccc3cc(C#N)cnn23)cc1Nc1ccc(-c2nnco2)cc1 [Example 627]', 'IRAK4 enzyme (Homo sapiens (Human))', '<', 1),
  ('CNC(=O)[C@H]1CC[C@H](NC(=O)c2cnc(-c3ccc4cc(C#N)cnn34)cc2NC23CC(NC(C)=O)(C2)C3)CC1 [Example 479]', 'IRAK4 enzyme (Homo sapiens (Human))', '<', 1),
  ('COCCNC(=O)CNC(=O)c1cnc(-c2ccc3cc(C#N)cnn23)cc1NC12CCC(O)(CC1)CC2 [Example 786]', 'IRAK4 enzyme (Homo sapiens (Human))', '=', 2),
  ('CN1CCC(C(=O)NC[C@H]2C[C@H](Nc3cc(-c4ccc5cc(C#N)cnn45)ncc3C(=O)NC[C@@H](F)C(C)(C)O)C2)CC1 [Example 794]', 'IRAK4 enzyme (Homo sapiens (Human))', '=', 2),
  ('CC(C)(O)[C@H](F)CNC(=O)c1cnc(-c2ccc3cc(C#N)cnn23)cc1N[C@H]1C[C@H](CNCC(F)(F)F)C1 [Example 700]', 'IRAK4 enzyme (Homo sapiens (Human))', '=', 2),
  ('CC(=O)NC12CCC(Nc3cc(-c4ccc5cc(C#N)cnn45)ncc3C(=O)NC[C@@H](F)C(C)(C)O)(CC1)C2 [Example 499]', 'IRAK4 enzyme (Homo sapiens (Human))', '=', 1),
  ('CC(=O)NC12CC(Nc3cc(-c4ccc5cc(C#N)cnn45)ncc3C(=O)NC[C@@H](F)C(C)(C)F)(C1)C2 [Example 494]', 'IRAK4 enzyme (Homo sapiens (Human))', '<', 1),
  ('CC(C)(O)[C@H](F)CNC(=O)c1cnc(-c2ccc3cc(C#N)cnn23)cc1NC12CCC(CC1)CC2 [Example 421]', 'IRAK4 enzyme (Homo sapiens (Human))', '=', 2),
  ('CC(C)(O)[C@H](F)CNC(=O)c1cnc(-c2ccc3cc(C#N)cnn23)cc1Nc1ccc(C(N)=O)nc1 [Example 601]', 'IRAK4 enzyme (Homo sapiens (Human))', '<', 1),
  ('CC(C)(F)[C@H](F)CNC(=O)c1cnc(-c2ccc3cc(C#N)cnn23)cc1N[C@H]1CCC[C@@H](O)C1 [Example 530]', 'IRAK4 enzyme (Homo sapiens (Human))', '<', 1),
  ('COc1ccc(Nc2cc(-c3ccc4cc(C#N)cnn34)ncc2C(=O)NC[C@@H](F)C(C)(C)O)cc1 [Example 609]', 'IRAK4 enzyme (Homo sapiens (Human))', '<', 1),
  ('CC(=O)NC12CC(Nc3cc(-c4ccc5cc(C#N)cnn45)ncc3C(=O)NC3CCC(C(=O)N4CCOCC4)CC3)(C1)C2 (stereo not drawn) [Example 477]', 'IRAK4 enzyme (Homo sapiens (Human))', '=', 1),
  ('CC(N)(CCNc1cc(-c2ccc3cc(C#N)cnn23)ncc1C(=O)NC[C@@H](F)C(C)(C)O)C(F)F (stereo partly drawn) [Example 559]', 'IRAK4 enzyme (Homo sapiens (Human))', '=', 1),
  ('CC(C)(O)[C@H](F)CNC(=O)c1cnc(-c2ccc3cc(C#N)cnn23)cc1N[C@H]1C[C@H](Oc2ccccc2)C1 [Example 708]', 'IRAK4 enzyme (Homo sapiens (Human))', '=', 1),
  ('COC(=O)NCCCC(C)(C)Nc1cc(-c2ccc3cc(C#N)cnn23)ncc1C(=O)NC[C@@H](F)C(C)(C)O [Example 720]', 'IRAK4 enzyme (Homo sapiens (Human))', '=', 2),
  ('N#Cc1cnn2c(-c3cc(NC45CCC(O)(CC4)CC5)c(C(=O)NCC4(F)CC4)cn3)ccc2c1 [Example 709]', 'IRAK4 enzyme (Homo sapiens (Human))', '=', 3),
  ('CC(C)(O)[C@H](F)CNC(=O)c1cnc(-c2ccc3cc(C#N)cnn23)cc1Nc1cnc2c(c1)CC(=O)N2 [Example 668]', 'IRAK4 enzyme (Homo sapiens (Human))', '=', 1),
  ('CC(C)(O)[C@H](F)CNC(=O)c1cnc(-c2ccc3cc(C#N)cnn23)cc1N[C@H]1C[C@@](C)(O)C1 [Example 450]', 'IRAK4 enzyme (Homo sapiens (Human))', '<', 1),
  ('C=CC(=O)NC12CCC(Nc3cc(-c4ccc5cc(C#N)cnn45)ncc3C(=O)NC[C@@H](F)C(C)(C)O)(CC1)CC2 [Example 424]', 'IRAK4 enzyme (Homo sapiens (Human))', '=', 1),
  ('CC(C)(O)[C@H](F)CNC(=O)c1cnc(-c2ccc3cc(C#N)cnn23)cc1Nc1ccc(-c2cnco2)nc1 [Example 625]', 'IRAK4 enzyme (Homo sapiens (Human))', '<', 1),
  ('CC(C)(O)[C@H](F)CNC(=O)c1cnc(-c2ccc3cc(C#N)cnn23)cc1NC12CCC(C(F)F)(CC1)CC2 [Example 537]', 'IRAK4 enzyme (Homo sapiens (Human))', '=', 1),
  ('COc1ncc(Nc2cc(-c3ccc4cc(C#N)cnn34)ncc2C(=O)NC[C@@H](F)C(C)(C)O)cn1 [Example 590]', 'IRAK4 enzyme (Homo sapiens (Human))', '<', 1);

====

# Tested on: TNFα
# Method Summary: cells
# Assay type: cell-based, human
# Condition Summary: Homo sapiens, Monocyte, LPS-stimulated human monocytes, TNFα content; read-out: EC50 TNF
pEC50: −log10 of the molar value.
Assay Metric: pEC50

INSERT INTO measurements (molecule, bound_operator, reported) VALUES
  ('CC(C)(O)[C@H](F)CNC(=O)c1cnc(-c2ccc3cc(C#N)cnn23)cc1Nc1ccc(CO)nc1 [Example 664]', '=', 7.85),
  ('CC(=O)NCC(F)(F)CNC(=O)c1cnc(-c2ccc3cc(C#N)cnn23)cc1NC(C)C [Example 551]', '=', 6.09),
  ('C[C@]1(O)C[C@H](Nc2cc(-c3ccc4cc(C#N)cnn34)ncc2C(=O)NCC#N)C1 [Example 389]', '=', 6.86),
  ('CC(C)(O)[C@H](F)CNC(=O)c1cnc(-c2ccc3cc(C#N)cnn23)cc1N[C@H]1CC[C@](C)(N)CC1 [Example 535]', '=', 6.00),
  ('COc1cccc(Nc2cc(-c3ccc4cc(C#N)cnn34)ncc2C(=O)NC[C@@H](F)C(C)(C)O)c1 [Example 606]', '=', 7.48),
  ('CC1(F)CC(Nc2cc(-c3ccc4cc(C#N)cnn34)ncc2C(=O)NC[C@@H](F)C(C)(C)O)C1 (stereo partly shown) [Example 136]', '=', 6.79),
  ('CC(C)(O)[C@H](F)CNC(=O)c1cnc(-c2ccc3cc(C#N)cnn23)cc1N[C@H]1C[C@@H]2C[C@H]1CN2 [Example 32]', '<', 5.00);

====

# Test Target: IRAK4 enzyme (Homo sapiens (Human), UniProt Q9NWZ3)
# Sequence (Q9NWZ3 whole entry): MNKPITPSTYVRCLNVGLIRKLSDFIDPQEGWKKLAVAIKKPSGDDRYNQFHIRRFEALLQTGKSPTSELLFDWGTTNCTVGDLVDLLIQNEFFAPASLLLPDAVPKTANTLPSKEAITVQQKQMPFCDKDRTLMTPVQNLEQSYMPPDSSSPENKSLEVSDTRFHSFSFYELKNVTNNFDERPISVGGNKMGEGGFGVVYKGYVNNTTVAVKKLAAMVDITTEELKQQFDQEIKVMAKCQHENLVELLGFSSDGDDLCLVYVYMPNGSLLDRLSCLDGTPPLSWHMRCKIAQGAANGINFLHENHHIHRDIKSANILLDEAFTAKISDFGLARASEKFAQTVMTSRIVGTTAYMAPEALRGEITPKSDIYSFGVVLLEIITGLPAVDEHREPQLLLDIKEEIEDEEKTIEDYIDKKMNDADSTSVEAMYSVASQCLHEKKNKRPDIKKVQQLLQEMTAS
# Method Summary: biochemical
# Type: biochemical
# Condition Summary: IRAK4 enzyme, TR-FRET, 500 μM ATP
Assay Metric: IC50 (nM)

INSERT INTO assay_data (molecule, test_target, bound_operator, reported) VALUES
  ('CC(C)(O)[C@H](F)CNC(=O)c1cnc(-c2ccc3cc(C#N)cnn23)cc1NC1CC1CO (stereo partly shown) [Example 303]', 'IRAK4 enzyme (Homo sapiens (Human), UniProt Q9NWZ3)', '<', 1),
  ('CC(=O)N[C@H]1CC[C@@H](Nc2cc(-c3ccc4cc(C#N)cnn34)ncc2C(=O)NC[C@@H](F)C(C)(C)O)CC1', 'IRAK4 enzyme (Homo sapiens (Human), UniProt Q9NWZ3)', '=', 3),
  ('CC(C)(O)[C@H](F)CNC(=O)c1cnc(-c2ccc3cc(C#N)cnn23)cc1NC[C@H]1COCCN1', 'IRAK4 enzyme (Homo sapiens (Human), UniProt Q9NWZ3)', '=', 3),
  ('CNC(=O)c1cnc(-c2ccc3cc(C#N)cnn23)cc1N[C@H]1CC[C@H](NC(C)=O)CC1', 'IRAK4 enzyme (Homo sapiens (Human), UniProt Q9NWZ3)', '=', 3),
  ('CC(C)(O)[C@H](F)CNC(=O)c1cnc(-c2ccc3cc(C#N)cnn23)cc1N[C@H]1CCC[C@@H](O)C1', 'IRAK4 enzyme (Homo sapiens (Human), UniProt Q9NWZ3)', '<', 1),
  ('CC(C)(O)[C@H](F)CNC(=O)c1cnc(-c2ccc3cc(C#N)cnn23)cc1N[C@H]1C[C@@H]2CN(S(C)(=O)=O)C[C@@H]2C1', 'IRAK4 enzyme (Homo sapiens (Human), UniProt Q9NWZ3)', '=', 1),
  ('COC(=O)Nc1ccc(Nc2cc(-c3ccc4cc(C#N)cnn34)ncc2C(=O)NC[C@@H](F)C(C)(C)O)cn1', 'IRAK4 enzyme (Homo sapiens (Human), UniProt Q9NWZ3)', '<', 1);
